# Test system: Mycolicibacterium smegmatis
# test.details: Antimycobacterial activity against active log phase Mycobacterium smegmatis ATCC 14468 by agar dilution method
# Format: functional
The following compounds are shown together with reported MIC values.
Form entry: value (µM) — number only.

| molecular.string | MIC [µM] |
| --- | --- |
| CCN(CC)C(=O)CC[N+](=O)[O-] | 287 |
| O=C(CC[N+](=O)[O-])Nc1ccc(Cl)cn1 | 218 |
| O=C(CC[N+](=O)[O-])Nc1ccc(Br)cc1 | 91.5 |
| O=C(CC[N+](=O)[O-])N1CCN(c2cccc(C(F)(F)F)c2)CC1 | 75.5 |

Lab note: CCn1cc(C(=O)O)c(=O)c2cc(F)c(N3CCN(C(=O)CC[N+](=O)[O-])CC3)cc21 gave MIC of 7.44

MIC for O=C(CC[N+](=O)[O-])Nc1ccccc1 is 129

Entry Cc1ccc(NC(=O)CC[N+](=O)[O-])c(C)c1 ; MIC = 225
